Overview of reported log10 of MIC across a group of compounds:
- Tested on: Escherichia coli
- EXPERIMENT_DESCRIPTION: Antibacterial activity against Escherichia coli without AcrAB efflux system by agar dilution method
- Format: functional
Note: values are log10 of MIC expressed in µg/mL.

COc1ccc(NC2CN(c3c(F)cc4c(=O)c(C(=O)O)cn(C5CC5)c4c3F)C2)cc1 | -1.51
O=C(O)c1cn(C2CC2)c2c(F)c(N3CC(N(Cc4ccccc4)Cc4ccccc4)C3)c(F)cc2c1=O | 1.81
Cc1ccc(NC2CN(c3c(F)cc4c(=O)c(C(=O)O)cn(C5CC5)c4c3F)C2)cc1 | -1.20

Qu. Lab note: need log10 of MIC for COc1c(N2CCNC(C)C2)c(F)cc2c(=O)c(C(=O)O)cn(C3CC3)c12 (stereo not given) on Escherichia coli, anyone have it?
Ans. -1.20

Qu. Lab note: need log10 of MIC for "O=C(O)c1cn(C2CC2)c2c(F)c(N3CC(Sc4nc5ccccc5o4)C3)c(F)cc2c1=O" on Escherichia coli, anyone have it?
Ans. 0.90

Qu. Lab note: need log10 of MIC for "CCOC(=O)c1ccc(NC2CN(c3c(F)cc4c(=O)c(C(=O)O)cn(C5CC5)c4c3F)C2)cc1" on Escherichia coli, anyone have it?
Ans. -0.60

Qu. Lab note: need log10 of MIC for "Cn1nnnc1SC1CN(c2c(F)cc3c(=O)c(C(=O)O)cn(C4CC4)c3c2F)C1" on Escherichia coli, anyone have it?
Ans. -0.90

Qu. Lab note: need log10 of MIC for "Cn1cnnc1SC1CN(c2c(F)cc3c(=O)c(C(=O)O)cn(C4CC4)c3c2F)C1" on Escherichia coli, anyone have it?
Ans. -0.60

Qu. Lab note: need log10 of MIC for "O=C(O)c1cn(C2CC2)c2c(F)c(N3CC(Nc4ccc(Cl)cc4)C3)c(F)cc2c1=O" on Escherichia coli, anyone have it?
Ans. -0.90

Qu. Lab note: need log10 of MIC for "Cn1nnnc1Sc1c(F)cc2c(=O)c(C(=O)O)cn(C3CC3)c2c1F" on Escherichia coli, anyone have it?
Ans. 0.00

Qu. Lab note: need log10 of MIC for "O=C(O)c1cn(C2CC2)c2c(F)c(N3CC(Sc4nc5ccccc5s4)C3)c(F)cc2c1=O" on Escherichia coli, anyone have it?
Ans. 0.90

Qu. Lab note: need log10 of MIC for "Cc1ccc(SC2CN(c3c(F)cc4c(=O)c(C(=O)O)cn(C5CC5)c4c3F)C2)cc1" on Escherichia coli, anyone have it?
Ans. 1.51

Qu. Lab note: need log10 of MIC for "O=C(O)c1cn(C2CC2)c2c(F)c(N3CC(Sc4ncccn4)C3)c(F)cc2c1=O" on Escherichia coli, anyone have it?
Ans. 0.00

Qu. Lab note: need log10 of MIC for "O=C(O)c1cn(C2CC2)c2c(F)c(N3CC(Nc4ccccc4)C3)c(F)cc2c1=O" on Escherichia coli, anyone have it?
Ans. -1.51

* * *

Overview of reported MIC across a group of molecules:
- Tested on: Haemophilus influenzae
- EXPERIMENT_DESCRIPTION: Antibacterial activity against Haemophilus influenzae by agar dilution method
- Assay type: functional

Answered cases to consult:
Cn1nnnc1Sc1c(F)cc2c(=O)c(C(=O)O)cn(C3CC3)c2c1F | 0.125 µg/mL
Cc1ccc(SC2CN(c3c(F)cc4c(=O)c(C(=O)O)cn(C5CC5)c4c3F)C2)cc1 | 0.25 µg/mL
O=C(O)c1cn(C2CC2)c2c(F)c(N3CC(Sc4nc5ccccc5o4)C3)c(F)cc2c1=O | 0.5 µg/mL
O=C(O)c1cn(C2CC2)c2cc(N3CCNCC3)c(F)cc2c1=O [CIPROFLOXACIN] | ≤ 0.008 µg/mL
COc1ccc(NC2CN(c3c(F)cc4c(=O)c(C(=O)O)cn(C5CC5)c4c3F)C2)cc1 | ≤ 0.008 µg/mL

Qu. Would you mind telling me what MIC value was observed for "Cc1ccc(NC2CN(c3c(F)cc4c(=O)c(C(=O)O)cn(C5CC5)c4c3F)C2)cc1" ?
Ans. ≤ 0.008 µg/mL

Qu. Would you mind telling me what MIC value was observed for "O=C(O)c1cn(C2CC2)c2c(F)c(N3CC(Nc4ccccc4)C3)c(F)cc2c1=O" ?
Ans. ≤ 0.008 µg/mL

Qu. Would you mind telling me what MIC value was observed for "O=C(O)c1cn(C2CC2)c2c(F)c(N3CC(Nc4ccc(Cl)cc4)C3)c(F)cc2c1=O" ?
Ans. ≤ 0.008 µg/mL

Where do the numbers come from? From ChEMBL document CHEMBL1146325.
